Form field: DC50 (one value per entry).
Target: NEK7 (Homo sapiens (Human), UniProt Q8TDX7+Q96SW2)
Sequence (Q8TDX7 whole entry): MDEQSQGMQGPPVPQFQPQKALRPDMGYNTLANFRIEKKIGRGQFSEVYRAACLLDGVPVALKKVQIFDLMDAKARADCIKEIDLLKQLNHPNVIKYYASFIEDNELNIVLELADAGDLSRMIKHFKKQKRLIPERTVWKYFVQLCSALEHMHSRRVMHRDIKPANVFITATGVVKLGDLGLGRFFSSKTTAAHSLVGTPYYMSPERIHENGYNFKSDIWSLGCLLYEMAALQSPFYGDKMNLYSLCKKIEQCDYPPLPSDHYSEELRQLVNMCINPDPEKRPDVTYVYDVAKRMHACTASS
Sequence (Q96SW2 whole entry): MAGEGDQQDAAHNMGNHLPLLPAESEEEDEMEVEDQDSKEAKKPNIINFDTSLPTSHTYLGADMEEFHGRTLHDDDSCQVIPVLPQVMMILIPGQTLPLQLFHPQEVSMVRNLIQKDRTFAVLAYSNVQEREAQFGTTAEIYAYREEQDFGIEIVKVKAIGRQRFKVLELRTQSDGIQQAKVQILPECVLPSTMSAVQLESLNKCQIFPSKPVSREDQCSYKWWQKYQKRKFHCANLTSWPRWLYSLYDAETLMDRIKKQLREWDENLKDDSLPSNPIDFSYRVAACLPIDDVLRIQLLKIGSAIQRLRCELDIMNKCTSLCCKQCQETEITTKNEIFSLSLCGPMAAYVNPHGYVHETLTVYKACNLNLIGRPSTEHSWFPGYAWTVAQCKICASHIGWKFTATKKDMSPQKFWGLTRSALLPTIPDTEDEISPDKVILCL
Sequence (Q16531 2-1140 partner): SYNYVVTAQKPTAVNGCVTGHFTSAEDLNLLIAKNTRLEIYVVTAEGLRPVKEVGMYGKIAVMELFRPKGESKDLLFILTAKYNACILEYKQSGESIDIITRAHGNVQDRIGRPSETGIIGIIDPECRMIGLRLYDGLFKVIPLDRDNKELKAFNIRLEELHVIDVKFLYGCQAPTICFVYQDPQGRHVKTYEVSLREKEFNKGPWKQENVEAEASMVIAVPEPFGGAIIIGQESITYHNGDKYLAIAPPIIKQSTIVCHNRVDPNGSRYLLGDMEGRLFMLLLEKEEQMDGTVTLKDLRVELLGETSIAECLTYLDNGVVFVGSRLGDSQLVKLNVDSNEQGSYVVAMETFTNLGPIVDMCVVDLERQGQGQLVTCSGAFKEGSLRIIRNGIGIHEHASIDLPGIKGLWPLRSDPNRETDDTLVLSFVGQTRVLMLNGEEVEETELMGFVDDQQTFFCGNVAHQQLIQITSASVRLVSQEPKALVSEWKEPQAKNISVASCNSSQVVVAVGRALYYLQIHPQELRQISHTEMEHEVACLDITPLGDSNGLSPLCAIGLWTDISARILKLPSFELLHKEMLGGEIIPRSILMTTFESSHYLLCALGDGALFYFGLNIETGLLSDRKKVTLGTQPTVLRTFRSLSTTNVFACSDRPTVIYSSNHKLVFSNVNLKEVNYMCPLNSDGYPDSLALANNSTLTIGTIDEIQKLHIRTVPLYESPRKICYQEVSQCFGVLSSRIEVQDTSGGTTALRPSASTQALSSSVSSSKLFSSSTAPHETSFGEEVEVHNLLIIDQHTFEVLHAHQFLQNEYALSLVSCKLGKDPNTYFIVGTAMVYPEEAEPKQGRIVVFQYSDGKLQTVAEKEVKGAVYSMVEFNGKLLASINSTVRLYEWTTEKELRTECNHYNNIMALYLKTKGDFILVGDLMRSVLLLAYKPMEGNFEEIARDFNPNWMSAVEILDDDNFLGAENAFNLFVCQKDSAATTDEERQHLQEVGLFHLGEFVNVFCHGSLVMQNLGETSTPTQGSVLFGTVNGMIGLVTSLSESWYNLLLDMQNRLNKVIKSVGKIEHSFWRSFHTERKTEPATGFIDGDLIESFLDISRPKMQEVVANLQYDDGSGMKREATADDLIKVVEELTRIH
Assay: NEK7 NanoBiT degradation assay in Cal51 NEK7 NanoBiT cell line
Assay type: cell-based
Conditions: NEK7 degradation, Cal51 NEK7 NanoBiT cells, 24 hours; read-out: NanoBiT DC50
Structures can show the parent of a compound that is named as a salt.

>  <compound>
CC(C)(C(=O)NCc1cc(Cl)c(C2CCC(=O)NC2=O)c(Cl)c1)c1ccc(=O)[nH]c1 (stereo not drawn)

>  <DC50>
≤ 100 nM

$$$$
>  <compound>
CC(C)(C(=O)NCc1cc(Cl)c(C2CCC(=O)NC2=O)c(Cl)c1)c1cc(F)[nH]c(=O)c1 (stereo not drawn)

>  <DC50>
≤ 100 nM

$$$$
>  <compound>
CC(C)(C(=O)NCc1cc(Cl)c(C2CCC(=O)NC2=O)c(Cl)c1)c1cnc(Cl)cn1 (stereo not drawn)

>  <DC50>
≤ 100 nM

$$$$
>  <compound>
CC(C)(C(=O)NCc1cc(Cl)c(C2CCC(=O)NC2=O)c(Cl)c1)c1nccc(C(F)F)n1 (stereo not drawn)

>  <DC50>
≤ 100 nM

$$$$
>  <compound>
COc1nc(C(C)(C)C(=O)NCc2cc(Cl)c(C3CCC(=O)NC3=O)c(Cl)c2)ncc1C (stereo not drawn)

>  <DC50>
≤ 100 nM

$$$$

Item: Cc1cnc(C(C)(C)C(=O)NCc2cc(Cl)c([C@@H]3CCC(=O)NC3=O)c(Cl)c2)nc1 (single isomer, unassigned) | System: NEK7 (Homo sapiens (Human), UniProt Q8TDX7+Q96SW2) | DC50: ≤ 100 nM

Item: CCOc1cnc(C(C)(C)C(=O)NCc2cc(F)c(C3CCC(=O)NC3=O)c(Cl)c2)cn1 (stereo not drawn) | System: NEK7 (Homo sapiens (Human), UniProt Q8TDX7+Q96SW2) | DC50: ≤ 100 nM

Item: Cc1nnc(C(C)(C)C(=O)NCc2cc(Cl)c([C@H]3CCC(=O)NC3=O)c(Cl)c2)o1 (single isomer, unassigned) | System: NEK7 (Homo sapiens (Human), UniProt Q8TDX7+Q96SW2) | DC50: > 1000 nM

Item: CC(F)(F)c1cnc(C(C)(C)C(=O)NCc2cc(F)c(C3CCC(=O)NC3=O)c(Cl)c2)cn1 (stereo not drawn) | System: NEK7 (Homo sapiens (Human), UniProt Q8TDX7+Q96SW2) | DC50: 100 to 1000 nM

Item: CC(C)(C(=O)NCc1cc(Cl)c(C2CCC(=O)NC2=O)c(Cl)c1)c1cc2cccnc2cn1 (stereo not drawn) | System: NEK7 (Homo sapiens (Human), UniProt Q8TDX7+Q96SW2) | DC50: ≤ 100 nM

Item: CC(C)(C(=O)NCc1cc(Cl)c([C@H]2CCC(=O)NC2=O)c(Cl)c1)c1ncc(C#N)cn1 (single isomer, unassigned) | System: NEK7 (Homo sapiens (Human), UniProt Q8TDX7+Q96SW2) | DC50: ≤ 100 nM

Item: CC(C)(C(=O)NCc1cc(Cl)c(C2CCC(=O)NC2=O)c(Cl)c1)c1cccc(C#N)c1 (stereo not drawn) | System: NEK7 (Homo sapiens (Human), UniProt Q8TDX7+Q96SW2) | DC50: ≤ 100 nM

Item: CN1CCC(C(=O)NCc2cc(Cl)c(C3CCC(=O)NC3=O)c(Cl)c2)(c2ccc(F)cc2)CC1 (stereo not drawn) [Compound 135, formate] | System: NEK7 (Homo sapiens (Human), UniProt Q8TDX7+Q96SW2) | DC50: ≤ 100 nM

Item: CC(C)(C(=O)NCc1cc(Cl)c(C2CCC(=O)NC2=O)c(Cl)c1)c1ccc2ncsc2c1 (stereo not drawn) | System: NEK7 (Homo sapiens (Human), UniProt Q8TDX7+Q96SW2) | DC50: ≤ 100 nM

Item: CC(C)(C(=O)NCc1ccc(C2CCC(=O)NC2=O)c(Cl)c1)c1cnc(F)nc1 (stereo not drawn) | System: NEK7 (Homo sapiens (Human), UniProt Q8TDX7+Q96SW2) | DC50: 100 to 1000 nM
